Quick list: pIC50 per entry.
molecular target: interaction between PD-1 and PD-L1 (Homo sapiens, UniProt Q9NZQ7); test: PD-1/PD-L1 protein-protein interaction assay (ALPHA); conditions: 2 nM His-tagged human PD-L1, 0.6 nM PD-1-Fc, AlphaScreen
Sequence (Q9NZQ7 19-238 limits assumed): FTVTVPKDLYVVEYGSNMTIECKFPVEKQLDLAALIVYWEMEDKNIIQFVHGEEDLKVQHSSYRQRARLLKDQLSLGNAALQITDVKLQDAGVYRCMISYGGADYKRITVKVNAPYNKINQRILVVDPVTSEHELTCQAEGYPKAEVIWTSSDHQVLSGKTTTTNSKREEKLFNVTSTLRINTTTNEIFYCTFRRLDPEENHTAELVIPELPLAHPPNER
pIC50: −log10 of the molar value.

// known answers, use as guide
COc1nc(N2CCc3c(-c4ccc5c(c4)OCCO5)cccc32)ccc1CNC[C@@H]1CCC(=O)N1: < 7.00
CCOC(=O)[C@@H](CO)NCc1c(OC)cc(-n2ncc3c(-c4cccc(-c5ccc(CNC[C@@H]6CCC(=O)N6)c(OC)n5)c4Cl)cccc32)cc1OC: 8.00 to 9.00
COc1cc(-n2ncc3c(-c4cccc(-c5ccc(CNC[C@@H]6CCC(=O)N6)c(OC)n5)c4Cl)cccc32)cc(OC)c1CN[C@H](CO)C(=O)O: > 9.00

Query COc1cc(-n2ncc3c(-c4cccc(-c5ccc(C6=NCCN6)c(OC)n5)c4Cl)cccc32)cc(OC)c1CN1CC2(CNC(=O)C2)C1 yields pIC50 of > 9.00

Sure, the documented pIC50 for COc1cc(-n2ncc3c(-c4cccc(-c5ccc(CN[C@H]6C[C@@H](O)C6)c(OC)n5)c4Cl)cccc32)ncc1CN1CC(C)(O)C1 is > 9.00

pIC50 recorded for this compound, COc1cc(-n2ncc3c(-c4cccc(Nc5nc(C(F)F)nc6cc(CN7CC[C@@H](O)C7)cnc56)c4C)cccc32)cc(OC)c1CN1CCC(C(=O)O)CC1 , is > 9.00

Recorded pIC50 (compound COc1cc(-n2ncc3c(-c4cccc(-c5ccc(CN[C@H]6C[C@@H](O)C6)c(OC)n5)c4Cl)cccc32)ncc1CNC[C@@H](C)O ): 8.00 to 9.00

Measured pIC50, COc1cc(-n2ncc3c(-c4cccc(-c5ccc(CN[C@H]6C[C@@H](O)C6)c(OC)n5)c4Cl)cccc32)cc(OC)c1CN1CC(C)(O)C1 : 8.00 to 9.00

The reported measurements were obtained from patent US20240336601A1.
